Sourced from the RNAGym collection of RNA variant scans (doi:10.7554/elife.90254)

B1: LINE1-full (parent)
chain: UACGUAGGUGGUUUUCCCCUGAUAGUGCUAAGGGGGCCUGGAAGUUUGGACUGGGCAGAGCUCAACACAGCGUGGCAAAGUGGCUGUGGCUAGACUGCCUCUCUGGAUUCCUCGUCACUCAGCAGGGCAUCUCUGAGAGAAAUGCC

- Variants of: B1
- assay-protocol: self-cleavage, relative activity (ratio to wild type); higher = more cleavage; in vitro, sequencing; the parent is a self-cleaving ribozyme
Would you please tag the item Yes when its self-cleavage is 0.6 or above, and No when it is below?

In plain terms: is recorded self-cleavage at least 0.6 for U20A U26C ? Yes

In plain terms: is recorded self-cleavage at least 0.6 for A65G U109C ? No

In plain terms: is recorded self-cleavage at least 0.6 for U9C G25U ? Yes

In plain terms: is recorded self-cleavage at least 0.6 for A30U U109C ? Yes

In plain terms: is recorded self-cleavage at least 0.6 for G86A A138G ? No

In plain terms: is recorded self-cleavage at least 0.6 for U119C A141C ? Yes

In plain terms: is recorded self-cleavage at least 0.6 for U23C U100A ? Yes

In plain terms: is recorded self-cleavage at least 0.6 for A124U A140U ? Yes

In plain terms: is recorded self-cleavage at least 0.6 for A69G G83U ? No

In plain terms: is recorded self-cleavage at least 0.6 for G21A C146U ? Yes

In plain terms: is recorded self-cleavage at least 0.6 for U52C A117G ? Yes

In plain terms: is recorded self-cleavage at least 0.6 for `A107U` ? Yes

In plain terms: is recorded self-cleavage at least 0.6 for U5A U45C ? Yes

In plain terms: is recorded self-cleavage at least 0.6 for U5C G33A ? Yes

In plain terms: is recorded self-cleavage at least 0.6 for `C68A` ? No

In plain terms: is recorded self-cleavage at least 0.6 for U9A A92G ? No

In plain terms: is recorded self-cleavage at least 0.6 for A2G A138U ? Yes

In plain terms: is recorded self-cleavage at least 0.6 for U15A U47A ? Yes

In plain terms: is recorded self-cleavage at least 0.6 for U109C G122A ? Yes

In plain terms: is recorded self-cleavage at least 0.6 for U1A A24U ? Yes

In plain terms: is recorded self-cleavage at least 0.6 for U12C U45A ? Yes

In plain terms: is recorded self-cleavage at least 0.6 for A42U A140G ? Yes

In plain terms: is recorded self-cleavage at least 0.6 for G93A U102C ? No

In plain terms: is recorded self-cleavage at least 0.6 for A79U C84A ? No

In plain terms: is recorded self-cleavage at least 0.6 for G10U A78G ? Yes

In plain terms: is recorded self-cleavage at least 0.6 for U1C C103U ? No

In plain terms: is recorded self-cleavage at least 0.6 for U52A C99U ? Yes

In plain terms: is recorded self-cleavage at least 0.6 for G32U A77C ? Yes

In plain terms: is recorded self-cleavage at least 0.6 for U102A G125A ? Yes

In plain terms: is recorded self-cleavage at least 0.6 for G33U C101U ? Yes

In plain terms: is recorded self-cleavage at least 0.6 for U46A U115A ? Yes

In plain terms: is recorded self-cleavage at least 0.6 for U96C G127A ? No

In plain terms: is recorded self-cleavage at least 0.6 for G55A U73A ? No

In plain terms: is recorded self-cleavage at least 0.6 for U119C A121G ? Yes

In plain terms: is recorded self-cleavage at least 0.6 for G75U A142U ? Yes
